tested on: S. aureus 29213; experiment: MIC, broth dilution method, S. aureus; format: cell-based; conditions: Staphylococcus aureus, 29213; Gram-positive bacteria; in vitro, broth dilution; read-out: MIC S. aureus 29213

MOLECULE	MIC / µg/mL
Oc1ccccc1Oc1ccccc1-c1nnn[nH]1	0.25
Cc1ccc(Oc2ccc(C3NC(C(=O)O)CS3)cc2)c(O)c1 (stereo not drawn)	0.25
Nc1nnc(-c2ccccc2Oc2ccc(F)cc2O)s1	12.5
Oc1cc(F)ccc1Oc1ccc(Cl)cc1-c1ncon1	0.5
CCOC(=O)c1cnn(-c2ccc(Oc3ccc(C)cc3O)cc2)c1	0.2
Cc1ccc(Oc2ccc(-c3cccs3)cc2O)c(O)c1	4
Cc1ccc(Oc2ccc([N+](=O)[O-])cc2-c2nnn[nH]2)c(O)c1	2
Cc1ccc(Oc2ccc([N+](=O)[O-])cc2-c2noc(C(=O)O)n2)c(O)c1	0.5
Oc1ccccc1Oc1ccc(-c2ccsc2)cc1O	4
Cc1ccc(Oc2ccc(-c3ccco3)cc2O)c(O)c1	2
Cc1ccc(Oc2ccc(C3NC(C(=O)O)CCS3)cc2)c(O)c1 (stereo not drawn)	0.5
Oc1cc(F)ccc1Oc1ccc(-c2ccco2)cc1O	4

---

test system: S. aureus 29213; test: MIC, broth dilution method, S. aureus; type: cell-based; conditions: Staphylococcus aureus, 29213; Gram-positive bacteria; in vitro, broth dilution; read-out: MIC S. aureus 29213
Could you please mark 1.0 for values of MIC below 0.8 µg/mL and 0.0 for values at or above it?

COMPOUND	CATEGORY LABEL
CCOC(=O)c1nc(-c2ccccc2Oc2ccc(Cl)cc2O)no1 [Example 51]	1.0
Cc1ccc(Oc2ccc(-n3cc(C(=O)O)cn3)cc2)c(O)c1 [Example 71]	0.0
Cc1ccc(Oc2ccccc2-c2noc(C(=O)O)n2)c(O)c1 [Example 37]	1.0
Oc1cc(F)ccc1Oc1ccc(Cl)cc1-c1nnn[nH]1 [Example 18]	1.0
Cc1ccc(Oc2ccc(C3NCCS3)cc2)c(O)c1 (centres unmarked) [Example 5]	1.0
Cc1ccc(Oc2ccc(-c3noc(C(=O)O)n3)cc2)c(O)c1 [Example 40]	0.0
Cc1ccc(Oc2ccccc2-c2nnn[nH]2)c(O)c1 [Example 14]	1.0
O=C(O)c1nc(-c2ccccc2Oc2ccc(Cl)cc2O)no1 [Example 54]	1.0
Oc1cc(Cl)ccc1Oc1ccccc1-c1ncon1 [Example 57]	1.0
Cc1ccc(Oc2ccccc2-c2ncon2)c(O)c1 [Example 43]	1.0
Cc1ccc(Oc2ccc(C3NC(C(=O)O)CCS3)cc2C#N)c(O)c1 (centres unmarked) [Example 10]	0.0
Oc1cc(F)ccc1Oc1ccccc1-c1ncon1 [Example 42]	0.0
Cc1ccc(Oc2ccc(NN)cc2)c(O)c1 [Example 67, 2-(4-Hydrazino-phenoxy)-5-methyl-phenol]	1.0
Cc1ccc(Oc2ccc(-c3nnn[nH]3)cc2)c(O)c1 [Example 13]	0.0
Cc1ccc(Oc2ccc(C3NC(C(=O)O)CS3)cc2C#N)c(O)c1 (centres unmarked) [Example 9]	0.0
Cc1ccc(Oc2ccc(/C(N)=N/O)cc2)c(O)c1 [Example 30]	0.0
Oc1cc(Cl)ccc1Oc1ccc(Cl)cc1-c1nnn[nH]1 [Example 19]	1.0
Cc1ccc(Oc2ccc(-c3nnc(N)s3)cc2)c(O)c1 [Example 23]	0.0
Cc1ccc(Oc2ccc(-c3ncon3)cc2)c(O)c1 [Example 45]	1.0

---

COMPOUND	melting point
Cc1ccc(Oc2ccc(-c3ccsc3)cc2O)c(O)c1	143 to 145 °C
Cc1ccc(Oc2ccccc2/C(N)=N/O)c(O)c1	85 to 87 °C
Cc1ccc(Oc2ccc(-c3cccs3)cc2O)c(O)c1	91 to 92 °C
Cc1ccc(Oc2ccc(C3NC(C(=O)O)CCS3)cc2)c(O)c1 (stereo not drawn)	140 to 145 °C (dec.)
COC(=O)C1CSC(c2ccc(Oc3ccc(C)cc3O)cc2)N1 (stereo not drawn)	134 to 135 °C
CCOC(=O)c1nc(-c2ccccc2Oc2ccc(F)cc2O)no1	82 to 83 °C
COC(=O)c1cn(-c2ccc(Oc3ccc(C)cc3O)cc2)nn1	148 to 151 °C
Cc1ccc(Oc2ccc(C3NCCS3)cc2)c(O)c1 (stereo not drawn)	197 to 199 °C
Cc1ccc(Oc2ccc(-c3nnc(N)s3)cc2)c(O)c1	240 to 243 °C (dec.)
Oc1ccccc1Oc1ccc(-c2ccsc2)cc1O	114 to 116 °C
Cc1ccc(Oc2ccc(C3NC(C(=O)O)CCS3)cc2C#N)c(O)c1 (stereo not drawn)	147 to 150 °C (dec.)
Cc1ccc(Oc2ccc(C3NC(C(=O)O)CS3)cc2C#N)c(O)c1 (stereo not drawn)	150 to 152 °C
Cc1ccc(Oc2ccc(C3NC(C(=O)O)CS3)cc2)c(O)c1 (stereo not drawn)	172 to 174 °C (dec.)
Cc1ccc(Oc2ccc(-c3nnn[nH]3)cc2)c(O)c1	173 to 175 °C
Cc1ccc(Oc2ccccc2-c2noc(=O)[nH]2)c(O)c1	213 to 214 °C
Cc1ccc(Oc2ccc(-n3cccc3)cc2)c(O)c1	95 to 96 °C
N/C(=N\O)c1ccccc1Oc1ccc(F)cc1O	64 to 65 °C
Cc1ccc(Oc2ccc(-c3noc(=O)[nH]3)cc2)c(O)c1	195 to 198 °C
O=C(O)c1nc(-c2ccccc2Oc2ccc(F)cc2O)no1	127 to 128 °C
COC(=O)c1cn(-c2ccccc2Oc2ccc(C)cc2O)nn1	153 to 155 °C
Cc1ccc(Oc2ccccc2-c2nnn[nH]2)c(O)c1	205 to 207 °C
Cc1ccc(Oc2ccc([N+](=O)[O-])cc2-c2ncon2)c(O)c1	159 to 160 °C
Nc1nnc(-c2ccccc2Oc2ccc(F)cc2O)s1	250 to 255 °C (dec.)
CCOC(=O)c1cnn(-c2ccccc2Oc2ccc(C)cc2O)c1	118 to 119 °C
